Target: T1, recombinant human midkine (huMK) (human, UniProt P21741 21-143)
T1 sequence (looked up): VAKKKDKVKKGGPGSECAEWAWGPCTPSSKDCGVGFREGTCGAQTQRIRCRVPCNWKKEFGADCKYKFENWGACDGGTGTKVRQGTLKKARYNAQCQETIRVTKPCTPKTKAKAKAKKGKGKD
Assay: cell-based or functional assay
Property Measured: Mean Cells/Field, Assay 4 (UMR106 migration, antibody 100 ug/mL, MK-17 20 µg/mL)

[[record]]
binder = "IP14-H6L3 (antibody, V domains shown, also called hIP14-H6L3; Hv6 Lv3) VH: QVQLVQSGGGLVKPGHSLRLSCAASGQSFSSYWMNWVRQAPGKGLEWIGMIHPSDSETILNQKFKDKATLSVDIAKNSAYLQMNSLRAEDTAVYYCSSWSAKRGDFWGQGTLVTVSS VL: DIVLTQSPATLSLSPGERATLSCRASESISNNLHWYQQKPGQAPRLLIYYASQSISGIPARFSGSGPGTDFTLTISSLEPEDFAVYYCQQSNSWPLTFGGGTKLEIKR"
result_value = "25 cells/field"

[[record]]
binder = "IP14-H5L8 (antibody, V domains shown, also called hIP14-H5L8; Hv5 Lv8) VH: QVQLVQSGGGLVQPGGSLRLSCAASGQSFSSYWMNWVRQAPGQGLEWIGMIHPSDSETILNQKFKDKATLTVDISKNTAYLQMNSLRAEDTAVYYCSSWSAKRGDFWGQGTLVTVSS VL: DIVLTQSPATLSLSPGERATLSCRASESISNNLHWYQQKPHQAPRLLIYYASQSISGVPARFSGSGSGTDFTLTISSVEPEDFAVYYCQQSNSWPLTFGQGTKVEIKR"
result_value = "19 cells/field"


QUERY: Suppose we examine the binder IP14-H6L8 (antibody, V domains shown, also called hIP14-H6L8; Hv6 Lv8) VH: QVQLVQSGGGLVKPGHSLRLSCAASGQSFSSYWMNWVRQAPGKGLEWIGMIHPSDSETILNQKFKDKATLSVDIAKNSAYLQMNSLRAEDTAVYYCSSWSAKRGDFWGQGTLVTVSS VL: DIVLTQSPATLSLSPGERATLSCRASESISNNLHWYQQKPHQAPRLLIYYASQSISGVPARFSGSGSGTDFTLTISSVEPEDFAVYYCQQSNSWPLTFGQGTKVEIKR ; what Mean Cells/Field, Assay 4 (UMR106 migration, antibody 100 ug/mL, MK-17 20 µg/mL) value has been reported?
RESULT: 27 cells/field

All figures here come from patent US20170240628A1.
